Reported Binding Similarity score values for a set of binders
target_system: T1, wildtype feline IL-31 protein (Feline_IL31_wildtype) (feline)
T1 construct: Full length feline IL-31 with C-terminal His tag, secreted from ExpiCHO cells; also called fIL-31
T1 chain: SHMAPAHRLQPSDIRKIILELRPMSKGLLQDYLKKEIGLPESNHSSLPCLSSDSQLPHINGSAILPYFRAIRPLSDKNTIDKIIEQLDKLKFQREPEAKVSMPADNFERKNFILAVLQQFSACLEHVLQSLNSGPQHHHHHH
assay: Biacore, feline IL-31 chip, mAb 100 nM, share of points within parent mean +/-3 SD
Parameters: key: % of mutant data points within parent mAb mean ±3 SD
Source text: The mean response unit of four replicates of the parent mAb+/−3 standard deviations was used to generate parameters to define a threshold of response units comprising both the on- and off-rates antibody binding (FIG. 22). The percentage of data points for each mutant fell within this threshold was then used to define a “% similarity score” (FIG. 23).
Provide a numeric answer; units are not to be included.

Here are 2 binders together with their reported answers.
Please look up its Binding Similarity score: A50 (antibody, V domains shown) VH: QVLLVQSGAEVRTPGASVKIFCKASGYSFTSYTIHWLRQAPAQGLEWMGNINPTSGYTENNARFKDRLTLTADTSTNTAYMELSSLRSADTAMYYCARWGFKYDGEWSFDVWGAGTTVTVSS VL: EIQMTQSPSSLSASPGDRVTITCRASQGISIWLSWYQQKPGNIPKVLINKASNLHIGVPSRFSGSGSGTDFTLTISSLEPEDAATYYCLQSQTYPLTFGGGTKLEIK
58.6

Try this binder next: A35 (antibody, V domains shown) VH: QVLLVQSGAEVRTPGASVKIFCKASGYSFTSYTAHWLRQAPAQGLEWMGNINPTSGYTENNQRFKDRLTLTADTSTNTAYMELSSLRSADTAMYYCARWGFKYDGEWSFDVWGAGTTVTVSS VL: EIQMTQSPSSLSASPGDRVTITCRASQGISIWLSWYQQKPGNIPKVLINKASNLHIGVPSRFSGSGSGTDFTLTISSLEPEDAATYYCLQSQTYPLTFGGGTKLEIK
97.5

Continuing:
Please look up its Binding Similarity score: A40 (antibody, V domains shown) VH: QVLLVQSGAEVRTPGASVKIFCKASGYSFTSYTIHWLRQAPAQGLEWMGNINATSGYTENNQRFKDRLTLTADTSTNTAYMELSSLRSADTAMYYCARWGFKYDGEWSFDVWGAGTTVTVSS VL: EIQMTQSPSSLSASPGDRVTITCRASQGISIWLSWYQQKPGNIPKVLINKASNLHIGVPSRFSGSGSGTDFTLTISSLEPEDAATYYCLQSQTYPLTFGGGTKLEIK
2.7

Try this binder next: A43 (antibody, V domains shown) VH: QVLLVQSGAEVRTPGASVKIFCKASGYSFTSYTIHWLRQAPAQGLEWMGNINPTAGYTENNQRFKDRLTLTADTSTNTAYMELSSLRSADTAMYYCARWGFKYDGEWSFDVWGAGTTVTVSS VL: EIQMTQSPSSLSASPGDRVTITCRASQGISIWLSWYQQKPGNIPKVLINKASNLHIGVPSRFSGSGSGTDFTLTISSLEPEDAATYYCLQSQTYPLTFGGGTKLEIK
100

Try this binder next: A62 (antibody, V domains shown) VH: QVLLVQSGAEVRTPGASVKIFCKASGYSFTSYTIHWLRQAPAQGLEWMGNINPTSGYTENNQRFKDRLTLTADTSTNTAYMELSSLRSADTAMYYCARWGFKYDGEWAFDVWGAGTTVTVSS VL: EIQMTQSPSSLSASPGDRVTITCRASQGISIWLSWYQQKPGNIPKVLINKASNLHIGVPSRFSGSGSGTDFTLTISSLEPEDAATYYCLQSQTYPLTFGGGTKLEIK
46.1
